Measured Kd of individual entries
Molecular target: T1, RVFV nucleoprotein (N) (Rift Valley fever virus, UniProt D3K5I7 1-245)
T1 sequence: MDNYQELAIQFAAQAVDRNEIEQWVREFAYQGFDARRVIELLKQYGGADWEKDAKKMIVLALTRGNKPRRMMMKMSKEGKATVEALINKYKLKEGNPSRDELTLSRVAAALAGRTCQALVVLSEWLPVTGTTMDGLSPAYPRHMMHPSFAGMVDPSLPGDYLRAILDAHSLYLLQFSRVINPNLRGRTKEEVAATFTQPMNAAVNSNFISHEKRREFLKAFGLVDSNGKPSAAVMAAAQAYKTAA
Test: fluorescence bead binding assay
endpoint_name: Kd (nM)

binder	endpoint_name	reported_result
CAGAAAAAGTGCCGACCGAACGATGTGTAAGCGCTATGAGA (ssDNA) [RV-5]	Kd	41
CTCCAGCGTAAACTACTGAAGACTGTGCCGGAAAGATC (ssDNA) [RV-2 (RVF 2)]	Kd	15.4
AGATGTCCTGCGTCGAGACACTTCTGCATTACTACGTTGG (ssDNA) [RV-3 (RVF 3)]	Kd	18.6
